Experiment: 1-octanol solubility
Details: organic solvent or mixture

{"columns": ["COMPOUND", "solubility (µg/mL)"],
 "data": [
  ["CCCCCCCCCCCCCCCCCC(=O)Oc1c2n(cc(C(=O)NCc3ccc(F)cc3F)c1=O)C[C@H]1OC[C@H](C)N1C2=O [M2CAB]", 2640],
  ["C[C@H]1CO[C@@H]2Cn3cc(C(=O)NCc4ccc(F)cc4F)c(=O)c(O)c3C(=O)N12 [CAB, cabotegravir]", 90]
]}

---

Test: Aqueous solubility
Type: physicochemical
Conditions: thermodynamic from solid, optima water, room temperature
PROPERTY MEASURED: solubility at 24 h (µg/mL)

{"columns": ["SMILES STR", "RECORDED RESULT"],
 "data": [
  ["CCCCCCCCCCCCCCCCCC(=O)Oc1c2n(cc(C(=O)NCc3ccc(F)cc3F)c1=O)C[C@H]1OC[C@H](C)N1C2=O", 1.91],
  ["C[C@H]1CO[C@@H]2Cn3cc(C(=O)NCc4ccc(F)cc4F)c(=O)c(O)c3C(=O)N12", 12.1]
]}

This collection of values is drawn from patent US12168013B2.
